- assay_procedure: NCI Yeast Anticancer Drug Screen. Data for the mec2-1 strain (AID 157)
- measurement_setup: S. cerevisiae mec2-1 strain, at 5.0 µM (retest, dose inferred, filed as 0.5), active compounds read high
Compounds without any hit were thinned out: in the full panel of roughly 79,000, 15% have a hit.
Below is a list of entries, each paired with its recorded growth inhibition value.
Write it as a number; the unit % goes unstated.

Query: Quick one: growth inhibition of `C[N-]c1nnnn1C.[Au+].c1ccc([PH+](c2ccccc2)c2ccccc2)cc1` ?
Response: 99

---

- assay_procedure: NCI Yeast Anticancer Drug Screen. Data for the mec2-1 strain (AID 157)
- measurement_setup: S. cerevisiae mec2-1 strain, at 5.0 µM (retest, dose inferred, filed as 0.5)
This is part of a sample that, as a whole, favours compounds with a hit. Of some 79,000 tested, about 15% had one in any assay. Activity calls are given as the source filed them. Cut-off read from the data, not from the text of the source: active = growth inhibition above about 70%; inactive = the rest.
Your reply should match one of these outcome classes. yes (1) (active), no (0) (inactive)

| molecule | qualitative_label |
| --- | --- |
| O=[N+]([O-])c1c(Cl)sc(Cl)c1[N+](=O)[O-] | yes (1) |
| Nc1cc(Cl)ccc1C(=O)c1ccccc1Cl | no (0) |
| CCOC(=O)C(/N=N\c1nn[nH]n1)/N=N/c1ncn[nH]1 (centres undefined) | no (0) |

Query: # fetch the recorded call for `CCCOc1ccc(/C=C/[N+](=O)[O-])cc1` here
Response: no (0)

Query: Status in this test for NC(C(=O)O)c1ccccc1Cl (centres undefined) ?
Response: no (0)

Query: Any idea what this test logged for CC(=O)OCC1OC(OC(C)C)[CH]([Hg][S]Cc2ccccc2)C(OC(C)=O)C1OC(C)=O (centres undefined) ?
Response: yes (1)

Query: Outcome? CCOC(=O)C1C2c3ccccc3C(c3ccccc32)C1C(=O)OCC (centres undefined)
Response: no (0)

Query: Assay result, entry C[C@]12CC/C(=N\OC(=O)Nc3ccccc3)C=C1CC[C@@H]1C2CC[C@@]2(C)C1CC[C@@H]2OC(=O)Nc1ccccc1 (some centres undefined) — outcome?
Response: no (0)

Query: Kindly provide the recorded test outcome for the following molecule: `CC(C)(C)C1=CC(=C/C=C/c2cc(C(C)(C)C)[o+]c(C(C)(C)C)c2)C=C(C(C)(C)C)O1`
Response: yes (1)

---

Recorded growth inhibition for the following molecules
- assay_procedure: NCI Yeast Anticancer Drug Screen. Data for the mec2-1 strain (AID 157)
- measurement_setup: S. cerevisiae mec2-1 strain, at 5.0 µM (retest, dose inferred, filed as 0.5), active compounds read high
About 79,000 compounds went through this panel and 15% of them were active in at least one assay; those are over-represented in the sample as a whole.
Field format: number, assumed %, no unit text.

Here are 5 molecules together with their reported answers.
| molecule | unit_abbrev | growth inhibition |
| --- | --- | --- |
| COC([CH2][Hg][n]1cnc2c1c(=O)n(C)c(=O)n2C)CN1C(=O)c2ccccc2S1(=O)=O (configuration not stated) | % | 20 |
| CCOc1cc(/C=C/[N+](=O)[O-])ccc1O | % | -44 |
| COC1C(C)OC(OC2CC(C)(O)Cc3cc4c(c(O)c32)C(=O)c2c(O)cc3c(c2C4=O)OC2OC3(C)C(O)C(N(C)C)C2O)C(OC)C1(C)OC (configuration not stated) | % | 75 |
| O=[N+]([O-])c1cc([N+](=O)[O-])c2cccnc2c1O | % | -10 |
| CC1CN1C1=C(F)C(=O)C(N2CC2C)=C(F)C1=O (configuration not stated) | % | 100 |

Query: Record request: growth inhibition value, item CC(=O)[CH-]C(=O)c1ccccc1.CC(=O)[CH-]C(=O)c1ccccc1.C[C@]12CCC(=O)C=C1CC[C@@H]1C2CC[C@@]2(C)C1CC[C@@H]2[O-].C[C@]12CCC(=O)C=C1CC[C@@H]1C2CC[C@@]2(C)C1CC[C@@H]2[O-].Cl.[Ti+4] (some centres not stated)
Response: 35

Query: Request the reported growth inhibition associated with `CC(C)C(=O)CP(=O)(O)O`
Response: 8

Query: growth inhibition for `S=c1[nH]c2ccccc2s1` ?
Response: -7

Query: So what does the record say about growth inhibition for O=C(O)C1C2CCC(C2)C1c1ccccc1 (configuration not stated) ?
Response: -8

Query: Quick one: growth inhibition of `O=c1c2ccccc2[se]n1-c1cccnc1` ?
Response: -20

Query: I am curious: what growth inhibition value has been reported for `Cc1cc[n+](C2=C(Nc3cc(C)cc(C)c3)C(=O)c3ccccc3C2=O)cc1` ?
Response: -2

Query: growth inhibition for `CCOP(=S)(OCC)OC(c1ccc(Cl)cc1)c1ccc(Cl)cc1` ?
Response: 0

Data origin: PubChem BioAssay (NCI)
